Test system: SF-539 CNS
Experiment: NCI tumour cell line growth inhibition, 48 h
Assignment: determine reported TGI for the given compounds.

Asked: If you can, please state the reported TGI value of CN(C)c1ccc(/C=N/NC2=N/C(=C\c3ccco3)C(=O)N2)cc1 .
Given back: > 100 µM

Asked: If you can, please state the reported TGI value of COc1ccc(/C=[N+](\[O-])[C@H](COCc2ccccc2)c2ccccc2)cc1 .
Given back: > 100 µM

Asked: If you can, please state the reported TGI value of O=S(=O)(O)c1ccc2cc(N=Nc3cc(S(=O)(=O)O)c4cccnc4c3O)ccc2c1 .
Given back: > 100 µM

###

Tested on: SF-268 CNS
Assay: NCI tumour cell line growth inhibition, 48 h
Assignment: determine reported TGI for the given compounds.

Asked: If you can, please state the reported TGI value of C/C(=C\CCC1=CC(=O)OC1)CC[C@@H]1[C@H]2C(=O)CC(C)[C@@]3(C)CC[C@]1(C)[C@@]23C (stereo not given in full) .
Given back: > 10 µM

Asked: If you can, please state the reported TGI value of Cc1ccc(S(=O)(=O)ON/N=C2/C3OC3[C@@H]3CCCC[C@H]23)cc1 (stereo not given in full) .
Given back: > 100 µM

Asked: If you can, please state the reported TGI value of CCOC(=O)/C=C/c1ccc(C(=O)OCC)[nH]1 .
Given back: > 100 µM

Asked: If you can, please state the reported TGI value of Cc1cc2ccccc2c[n+]1CC(=O)CC([O-])(C(F)(F)F)C(F)(F)F .
Given back: > 100 µM

Asked: If you can, please state the reported TGI value of COc1ccc(/C=[N+](\[O-])[C@H](COCc2ccccc2)c2ccccc2)cc1 .
Given back: > 100 µM

###

Test system: SNB-75 CNS
Test: NCI tumour cell line growth inhibition, 48 h
property-label: TGI

Asked: If you can, please state the reported TGI value of COc1ccc([N+](=O)[O-])c2c(NCC(O)CO)ccnc12 (stereo not drawn) .
Given back: > 100 µM

Asked: If you can, please state the reported TGI value of O=C1CC(c2cccc(Cl)c2)n2cccc21 (stereo not drawn) .
Given back: > 100 µM

Asked: If you can, please state the reported TGI value of COc1cccc2c1C1=CC(=O)CCC1C(C)(C)O2 (stereo not drawn) .
Given back: > 100 µM

###

Assignment: determine reported TGI for the given compounds.
Tested on: NCI-H460 lung
Assay: NCI tumour cell line growth inhibition, 48 h

Asked: If you can, please state the reported TGI value of COc1ccc(CNc2nc3ccccc3nc2-c2cccs2)cc1 .
Given back: > 100 µM

Asked: If you can, please state the reported TGI value of CC1(C)C2CCC1C(=O)C(C=O)C2 (stereo not drawn) .
Given back: > 100 µM

Asked: If you can, please state the reported TGI value of Cc1ccc(S(=O)(=O)ON/N=C2/C3OC3[C@@H]3CCCC[C@H]23)cc1 (stereo partly drawn) .
Given back: > 100 µM

###

System: UO-31 renal
Assay: NCI tumour cell line growth inhibition, 48 h
Assignment: determine reported TGI for the given compounds.

Asked: If you can, please state the reported TGI value of CCCN(CCCCC(NC(C)=O)C(=O)NCc1ccccc1)C(=O)NC (stereo unspecified) .
Given back: > 100 µM

Asked: If you can, please state the reported TGI value of O=C(c1ccco1)N(C(=S)N1CCN(c2ccccc2)CC1)c1ccccc1 .
Given back: > 100 µM

Asked: If you can, please state the reported TGI value of CN(C)CCOc1ccc(-c2c(Oc3ccc(Cl)cc3)c(=O)oc3ccccc23)cc1 .
Given back: > 28.9 µM

Asked: If you can, please state the reported TGI value of CCOC(=O)/C=C/c1ccc(C(=O)OCC)[nH]1 .
Given back: > 100 µM

Asked: If you can, please state the reported TGI value of N#C/C(=C(\O)C(=O)O)c1ccc(-c2cccc3ccccc23)cc1 .
Given back: > 100 µM

Asked: If you can, please state the reported TGI value of CCCCCCCCOCC1S(=O)(=O)OCCOS1(=O)=O .
Given back: > 100 µM

Asked: If you can, please state the reported TGI value of S=C1CC(c2ccc(Cl)cc2)Sc2ccccc2N1 (stereo unspecified) .
Given back: > 100 µM

Asked: If you can, please state the reported TGI value of O=C(CSC1=NCCN1)c1ccccc1 .
Given back: > 100 µM

Asked: If you can, please state the reported TGI value of Cc1ccc(S(=O)(=O)ON/N=C2/C3OC3[C@@H]3CCCC[C@H]23)cc1 (stereo partly specified) .
Given back: > 100 µM

Asked: If you can, please state the reported TGI value of COC(=O)c1ccc(OCc2ccc3oc(=O)c(-c4ccccc4)nc3c2)cc1 .
Given back: > 100 µM

Asked: If you can, please state the reported TGI value of OCC1OC(N2C=C(c3nc4ccccc4s3)C3C=CC=CC32)C(O)C1O (stereo unspecified) .
Given back: > 50 µM

Asked: If you can, please state the reported TGI value of COc1cc(C(C#N)NNC(=O)c2ccccc2O)ccc1O (stereo unspecified) .
Given back: 3.28 µM

Asked: If you can, please state the reported TGI value of C/C(=N/O)c1cccc(Nc2nc3ccccc3c3[nH]c4ccccc4c23)c1 .
Given back: 12 µM

Asked: If you can, please state the reported TGI value of CC1(C)OC2C(=O)OC(COCc3ccccc3)C2O1 (stereo unspecified) .
Given back: > 100 µM

Asked: If you can, please state the reported TGI value of Cc1ccc2c3c1O[C@H]1c4nc5ccccc5cc4C[C@@]4(O)[C@@H](C2)N(CC2CC2)CC[C@]314 .
Given back: 22.2 µM

Asked: If you can, please state the reported TGI value of CC(=O)O/C(C)=C\C(=O)O/N=C(\N)c1ccc(C)cc1 .
Given back: > 100 µM

Asked: If you can, please state the reported TGI value of O=C(Nc1ccc(Br)cc1)c1cc(Br)cc(Br)c1O .
Given back: 11.5 µM

Asked: If you can, please state the reported TGI value of CCOC(=O)/C=C(/CN1C(=O)c2ccccc2C1=O)c1ccccc1 .
Given back: > 100 µM

Asked: If you can, please state the reported TGI value of CC1=C(N2CC2)C(=O)c2nc3n(c2C1=O)CCC3O (stereo unspecified) .
Given back: 4.18 µM

Asked: If you can, please state the reported TGI value of CC[C@H]1C=CCC[C@@]2(C[C@@H]3CC[C@@H]4[C@H](C(=O)OCCCCCCCCCCCCCCCC(=O)N(CCCN)C[C@@H](O)CCN)[C@]5(CCC[C@@H](C)O5)NC(=[N+]34)N2)O1 .
Given back: 1.64 µM

Asked: If you can, please state the reported TGI value of CN(C)CCNC(=O)c1cccc(CO)c1[N+](=O)[O-] .
Given back: > 100 µM

Asked: If you can, please state the reported TGI value of Cc1ccc(N2C(=O)C(Cl)=C(Nc3cccc(O)c3)C2=O)cc1Cl .
Given back: 75.8 µM

Asked: If you can, please state the reported TGI value of CN(C)CCNC(=O)c1cc([N+](=O)[O-])cc2ccc(-c3ccccc3)nc12 .
Given back: 11.2 µM

Asked: If you can, please state the reported TGI value of CC1(C)C2CCC1C(=O)C(C=O)C2 (stereo unspecified) .
Given back: > 100 µM

Asked: If you can, please state the reported TGI value of CCCc1ccc(N=Cc2cc(OC)c(OC)c(OC)c2)cc1 .
Given back: > 100 µM

Asked: If you can, please state the reported TGI value of COC(=O)C12C3C4C1C1C2C3C41I (stereo unspecified) .
Given back: > 100 µM
